These entries and their values trace back to PubChem BioAssay (EPA / NIEHS).

Target Entity: rat Peripheral-type Benzodiazepine Receptor (PBR), Tspo (gene 24230)
Experiment Description: NVS_MP_rPBR: NovaScreen (NVS) Membrane Protein Assay for rat Peripheral-type Benzodiazepine Receptor (PBR) (AID 2283335)
Results filed as inconclusive are left out. Activity calls are given as the source filed them. The calls were made as follows: active = hit-call score of the fitted dose curve at least 0.9, where 1 is the maximum; inconclusive = response in the unintended direction; inactive = score below 0.9.
Reply using exactly one outcome from active, inactive

// query Given O=C1OC2(c3ccc(O)cc3Oc3cc(O)ccc32)c2ccccc21 , state the outcome it received in this test.
// result active

// query And the next one, COc1cc(OC)c2ccc(=O)oc2c1 ?
// result active

// query And the next one, CCCCCCOc1ccc(O)cc1 ?
// result active

// query And the next one, CC1(C)[C@H](C=C(Cl)Cl)[C@H]1C(=O)OCc1cccc(Oc2ccccc2)c1 ?
// result inactive

###

Read-out: Tissue Factor, F3 (gene 2152)
Experiment Description: BSK_CASM3C_TissueFactor: BioMAP Diversity Plus: CASM3C Assay for Tissue Factor Biomarker Activity (AID 2283052);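 also: cell surface tissue factor protein level read by ELISA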
Study Conditions: primary human coronary artery smooth muscle cells; actives raise or lower the signal
Active and inactive are the calls of the source. Rule for the calls: active = hit-call score of the fitted dose curve at least 0.9, where 1 is the maximum; inactive = score below 0.9.
Assay Readout: AC50

Observe how each entry below is paired with its result.
INSERT INTO assay_data (compound, recorded_measurement) VALUES
  ('O=C(c1ccc(OCCN2CCCCC2)cc1)c1c(-c2ccc(O)cc2)sc2cc(O)ccc12', 'inactive'),
  ('Nc1ccc(N)c([N+](=O)[O-])c1', '37 nM (active)'),
  ('OCCN1CCOCC1', '2220 nM (active)'),
  ('CCCCOCCOCCO', 'inactive'),
  ('CC(C)(C)c1cccc(O)c1', 'inactive');

// query # query: AC50 of entry CCCCCCCCCCCCS
// result inactive

###

Experiment Description: CCTE_Deisenroth_5AR_NBTE_acceptor: CCTE's 5alpha-reductase NanoBRET Target Engagement Assay - Autofluorescence Screen, Deisenroth Lab (AID 2284321);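 also: compound fluorescence in the acceptor channel under 460 nm excitation flags autofluorescence artifacts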
Study Conditions: actives raise or lower the signal
Active and inactive are the calls of the source. Rule for the calls: active = hit-call score of the fitted dose curve at least 0.9, where 1 is the maximum; inactive = score below 0.9.
Assay Readout: AC50

INSERT INTO measurements (smiles_text, assay_readout, recorded_measurement) VALUES
  ('CC/C(=C(\c1ccccc1)c1ccc(OCCN(C)C)cc1)c1ccccc1', 'AC50', '64 µM (active)'),
  ('CCCCCCCCCCCCN1CCOCC1', 'AC50', 'inactive'),
  ('O=C1OC2(c3ccc(O)cc3Oc3cc(O)ccc32)c2ccccc21', 'AC50', 'inactive'),
  ('O=S(=O)(O)c1cc(S(=O)(=O)O)c2c(N=Nc3ccccc3)c(O)ccc2c1', 'AC50', 'inactive');

// query # query: AC50 of entry O=C(c1ccc(OCCN2CCCCC2)cc1)c1c(-c2ccc(O)cc2)sc2cc(O)ccc12
// result 50 µM (active)

###

Experiment Description: CCTE_Padilla_ZF_Score.Swim_bladder: CCTE's 144 Hour Post-fertilization zebrafish Assay Score for Swim Bladder Malformation, Padilla Lab (AID 2284408)
Calls of active or inactive are those of the source. The calls were made as follows: active = hit-call score of the fitted dose curve at least 0.9, where 1 is the maximum; inactive = score below 0.9.
Assay Readout: outcome

INSERT INTO assay_data (compound, assay_readout, recorded_measurement) VALUES
  ('OCC(F)(OC(F)(F)C(F)(OC(F)(F)C(F)(F)C(F)(F)F)C(F)(F)F)C(F)(F)F (centres undefined)', 'outcome', 'inactive'),
  ('C=C(F)C(=O)OC(C(F)(F)F)C(F)(F)F', 'outcome', 'inactive'),
  ('O=S(=O)(O)C(F)(F)C(F)(F)OC(F)(F)C(F)(F)F', 'outcome', 'inactive'),
  ('O=C(O)C(F)(F)C(F)(F)C(F)(F)C(F)(F)C(F)(F)C(F)(F)C(F)(F)C(F)F', 'outcome', 'inactive');

###

Read-out: Interleukin 6 (IL6), IL6 (gene 3569)
Experiment Description: BSK_BT_xIL6: BioMAP Diversity Plus: BT Assay for Interleukin 6 (IL6) Biomarker Activity (AID 2284228)
Study Conditions: primary human B cells with PBMC
Active and inactive are the calls of the source. Rule for the calls: active = hit-call score of the fitted dose curve at least 0.9, where 1 is the maximum; inactive = score below 0.9.
Reply using exactly one outcome from active, inactive

// query Given Nc1ccc(N)c([N+](=O)[O-])c1 , state the outcome it received in this test.
// result inactive

// query And the next one, c1ccc2c(c1)-c1ccc3ccc4cccc5cc-2c1c3c45 ?
// result active

// query And the next one, O=C(O)C(F)(F)OC(F)(F)C(F)(F)OC(F)(F)C(F)(F)C(F)(F)C(F)(F)F ?
// result inactive

// query And the next one, C=C(F)C(=O)OC(C(F)(F)F)C(F)(F)F ?
// result inactive

// query And the next one, CCCCCCCCCCCCS ?
// result inactive

// query And the next one, C=CC(=O)OCC(CO)(COC(=O)C=C)COC(=O)C=C ?
// result active

###

Read-out: Vascular cell adhesion molecule 1 (VCAM1), VCAM1 (gene 7412)
Experiment Description: BSK_LPS_VCAM1: BioMAP Diversity Plus: LPS Assay for Vascular cell adhesion molecule 1 (VCAM1) Biomarker Activity (AID 2283086)
Study Conditions: primary human HUVEC with PBMC; actives raise or lower the signal
The source made the active and inactive calls. Rule for the calls: active = hit-call score of the fitted dose curve at least 0.9, where 1 is the maximum; inactive = score below 0.9.
Reply using exactly one outcome from Yes = active, No = inactive

// query Given O=C(O)C(F)(F)C(F)(F)C(F)(F)C(F)(F)C(F)(F)C(F)(F)C(F)(F)C(F)F , state the outcome it received in this test.
// result No

// query And the next one, c1ccc2c(c1)-c1ccc3ccc4cccc5cc-2c1c3c45 ?
// result No

// query And the next one, CCCCCCCCCC(=O)OCC ?
// result No

// query And the next one, O=C(c1ccc(OCCN2CCCCC2)cc1)c1c(-c2ccc(O)cc2)sc2cc(O)ccc12 ?
// result Yes

// query And the next one, c1ccc(OCCOc2ccccc2)cc1 ?
// result No

// query And the next one, CC(C)(C)c1cccc(O)c1 ?
// result No

// query And the next one, c1ccc(Sc2ccccc2)cc1 ?
// result Yes

// query And the next one, CCC(=O)OCC=Cc1ccccc1 ?
// result No

// query And the next one, C=C(F)C(=O)OC(C(F)(F)F)C(F)(F)F ?
// result No

// query And the next one, CCCCN(CCO)CCO ?
// result No

// query And the next one, CC(C)CCCC(C)(C)O ?
// result No

// query And the next one, C[C@]12CC[C@@H]3c4ccc(O)cc4CC[C@H]3[C@@H]1CC[C@@H]2O ?
// result Yes

// query And the next one, CC(=O)c1ccc(C)cc1 ?
// result No

###

Experiment Description: ATG_ERE_CIS: Attagene CIS-FACTORIAL HepG2 Assay for Estrogen Response Element (ERE) (AID 2282940)
Study Conditions: HepG2 ERE cis-reporter, Attagene RNA transcript; actives raise or lower the signal
The source made the active and inactive calls. How the source made its calls: active means hit-call score of the fitted dose curve at least 0.9, where 1 is the maximum; inactive means score below 0.9.
Reply using exactly one outcome from 1.0 = active, 0.0 = inactive

// query Given CCC(CC)CO , state the outcome it received in this test.
// result 0.0

// query And the next one, O=C(O)c1cc2ccccc2cc1O ?
// result 0.0

// query And the next one, CCOC(=O)C(=O)OCC ?
// result 0.0

// query And the next one, CC(=O)Nc1cc(S(=O)(=O)O)cc2cc(S(=O)(=O)O)c(N=Nc3ccccc3)c(O)c12 ?
// result 0.0

// query And the next one, CC/C=C\CCOC(C)OCC (stereo not drawn) ?
// result 0.0

// query And the next one, COc1cc(OC)c2ccc(=O)oc2c1 ?
// result 0.0

// query And the next one, CN(C)c1ccc(C=O)cc1 ?
// result 0.0

// query And the next one, CC1=CC[C@@H](C(C)(C)O)CC1 ?
// result 0.0

// query And the next one, CC(C)=CCCC(C)=CC(=O)O ?
// result 0.0

// query And the next one, CC1(C)CC(=O)CC(C)(C)N1 ?
// result 0.0

// query And the next one, CCOC(=O)CC1(C)OCC(C)O1 (stereo not drawn) ?
// result 0.0

// query And the next one, NC(=O)NC(N)=O ?
// result 0.0

// query And the next one, O=C1OCc2ccccc21 ?
// result 0.0

// query And the next one, CCCCCCC(C)O (stereo not drawn) ?
// result 0.0

// query And the next one, CC1=CCC(=C(C)C)CC1 ?
// result 1.0

// query And the next one, CC(C)(CO)CO ?
// result 0.0

// query And the next one, C=C1CC[C@H]2O[C@]2(C)CC[C@@H]2[C@@H]1CC2(C)C ?
// result 0.0

// query And the next one, CCOC(=O)C=Cc1ccccc1 ?
// result 0.0

// query And the next one, CC(C)(O)CCc1ccccc1 ?
// result 0.0

// query And the next one, CC(=O)c1ccc2ccccc2c1 ?
// result 0.0

// query And the next one, CCCCOC(=O)C(C)OC(=O)CCC (stereo not drawn) ?
// result 0.0

// query And the next one, Cc1cc(N)n(-c2ccccc2)n1 ?
// result 0.0

// query And the next one, CCCCCCCC1CCCC1=O (stereo not drawn) ?
// result 0.0

// query And the next one, CCOC(=O)CC(C)C ?
// result 0.0

// query And the next one, CCCc1ccc(O)cc1 ?
// result 1.0

// query And the next one, NC(N)=NC(N)=NCCc1ccccc1 ?
// result 0.0

// query And the next one, Cc1cc(O)c(C)c(C)c1O ?
// result 0.0

// query And the next one, C=CC(=O)OCC(CO)(COC(=O)C=C)COC(=O)C=C ?
// result 0.0

// query And the next one, c1ccc2c(c1)-c1ccc3ccc4cccc5cc-2c1c3c45 ?
// result 1.0

// query And the next one, c1ccc(OCCOc2ccccc2)cc1 ?
// result 0.0

// query And the next one, CCCCCCCCCO ?
// result 0.0

// query And the next one, C=COCC1CCC(COC=C)CC1 (stereo not drawn) ?
// result 0.0

// query And the next one, CC(C)C(=O)OCC=Cc1ccccc1 ?
// result 0.0
